Molecular target: MLLT1 (Homo sapiens, UniProt Q03111)
Sequence (Q03111 whole entry): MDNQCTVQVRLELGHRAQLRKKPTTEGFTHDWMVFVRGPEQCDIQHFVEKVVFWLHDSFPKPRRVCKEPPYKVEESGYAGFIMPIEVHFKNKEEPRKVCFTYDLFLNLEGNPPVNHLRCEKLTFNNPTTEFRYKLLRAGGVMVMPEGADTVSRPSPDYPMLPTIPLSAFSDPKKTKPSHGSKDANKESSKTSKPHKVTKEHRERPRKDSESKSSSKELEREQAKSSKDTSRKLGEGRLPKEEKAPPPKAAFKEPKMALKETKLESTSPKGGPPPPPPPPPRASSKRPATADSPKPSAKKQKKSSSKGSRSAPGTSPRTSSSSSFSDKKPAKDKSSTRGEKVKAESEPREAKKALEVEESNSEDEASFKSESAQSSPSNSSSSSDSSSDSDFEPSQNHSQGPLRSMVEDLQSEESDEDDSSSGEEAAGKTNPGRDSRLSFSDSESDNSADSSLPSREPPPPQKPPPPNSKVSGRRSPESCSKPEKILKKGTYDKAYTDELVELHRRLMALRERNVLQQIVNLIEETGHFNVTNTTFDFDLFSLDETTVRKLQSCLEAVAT
Assay: biochemical
Conditions: MLLT1 assay IC50 (nM), HTRF, 6His tagged MLLT1, biotinylated H3K9cro peptide; compound 20 μM to 20 nM, 11 data points in duplicate
Recorded IC50, one value per entry.

Check out these entries, answers already filled in.
                                   molecule                          assay_system  assay_metric        meas_value
0  Cc1nn(C)c2cc(C(=O)Nc3cn4cc([C@@H]5CCCN5C)nc4cn3)ccc12 (single isomer, unassigned) [Example 69]  MLLT1 (Homo sapiens, UniProt Q03111)          IC50  1500 to 20000 nM
1  CN1CCCC1c1cn2cc(NC(=O)c3cc4ccncc4cc3F)ccc2n1 (single isomer, unassigned) [Example 26]  MLLT1 (Homo sapiens, UniProt Q03111)          IC50    150 to 1500 nM
2  CN1CCCC1c1cn2cc(NC(=O)c3ccc(-c4ncccn4)cc3F)ccc2n1 (single isomer, unassigned) [Example 20]  MLLT1 (Homo sapiens, UniProt Q03111)          IC50  1500 to 20000 nM
3  CN1CCCC1c1cn2cc(NC(=O)c3ccc4c(cnn4C)c3)ccc2n1 (single isomer, unassigned) [Example 59]  MLLT1 (Homo sapiens, UniProt Q03111)          IC50  1500 to 20000 nM
4  CN1C[C@H](F)C[C@@H]1c1cn2cc(NC(=O)c3ccc4c(cnn4C)c3)ncc2n1 [Example 105]  MLLT1 (Homo sapiens, UniProt Q03111)          IC50    150 to 1500 nM

Identify measured IC50 associated with CN1CCCC1c1cn2cc(NC(=O)c3ccc4c(c3)c(C3CCCC3)nn4C)ccc2n1 (racemic) [Example 48]
150 to 1500 nM

Identify measured IC50 associated with CC1CCC(c2cn3cc(NC(=O)c4ccc5c(cnn5C)c4)ccc3n2)N1C (racemic) [Example 63]
1500 to 20000 nM

====

Recorded IC50, one value per entry.
Target: MLLT1 (Homo sapiens, UniProt Q03111)
Assay: biochemical
Conditions: MLLT1 assay IC50 (nM), HTRF, 6His tagged MLLT1, biotinylated H3K9cro peptide; compound 20 μM to 20 nM, 11 data points in duplicate

Check out these entries, answers already filled in.
In [3]: df
Out[3]:
                                   compound                          assay_system      meas_value
0  COCCc1nn(C)c2ccc(C(=O)Nc3ccc4nc(C5CCCN5C)cn4c3)cc12 (racemic) [Example 49]  MLLT1 (Homo sapiens, UniProt Q03111)  150 to 1500 nM
1  CN1CCCC1c1cn2cc(NC(=O)c3ccc4scnc4c3)ccc2n1 (stereo not shown) [Example 41]  MLLT1 (Homo sapiens, UniProt Q03111)  150 to 1500 nM
2  CN1CCC[C@@H]1c1cn2cc(NC(=O)c3cc4cnn(C)c4cc3F)ncc2n1 [Example 101]  MLLT1 (Homo sapiens, UniProt Q03111)        < 150 nM

// switching to the query compound
Identify measured IC50 associated with CN1CCCC1c1cn2cc(NC(=O)c3ccn4cnnc4c3)ccc2n1 (racemic) [Example 33]
150 to 1500 nM
